# fold change annotations
- method-summary: viability loss with induced miR-34 in A549 – imaging, A549 dox-inducible miR-34, nuclei and caspase counts, primary screen (AID 1347080); note: test concentration not given here
- condition-summary: A549 miR-34 inducible, Hoechst nuclei count, 48 h; stronger effect = lower value; cell number ratio, induced over uninduced
quantity-kind: fold change

- molecule: "O=C1C=CC(=O)C2=C1C1c3ccccc3C2c2ccccc21"
  quantity-kind: "fold change"
  quantitative-readout: 0.889
- molecule: "CCc1cc(C(C)=O)c(O)cc1OCCCCCC(C)(C)c1nn[nH]n1"
  quantity-kind: "fold change"
  quantitative-readout: 0.891
- molecule: "COC(=O)/C=C/c1cccc(N(Cc2ccc(-c3ccc(N(C)C)cc3)cc2)C(=O)C2CCCCC2)c1"
  quantity-kind: "fold change"
  quantitative-readout: 0.926
- molecule: "O=C(NCCS(=O)(=O)c1ccc(C(F)(F)F)cn1)c1ccc(Cl)cc1"
  quantity-kind: "fold change"
  quantitative-readout: 0.87
- molecule: "CCCCC[C@](C)(O)/C=C/[C@H]1C(=O)C[C@H](O)[C@@H]1C/C=C\\CCCC(=O)O"
  quantity-kind: "fold change"
  quantitative-readout: 1.01
- molecule: "C[Se]CC[C@H](N)C(=O)O"
  quantity-kind: "fold change"
  quantitative-readout: 0.969
- molecule: "CCCCC[C@H](O)/C=C/[C@H]1[C@H](O)CC(=O)[C@@H]1CCCCCCCO"
  quantity-kind: "fold change"
  quantitative-readout: 0.891
- molecule: "COc1nc(C)cnc1NS(=O)(=O)c1cccnc1-c1ccc(-c2nnco2)cc1"
  quantity-kind: "fold change"
  quantitative-readout: 0.916
- molecule: "CCCCCCCC/C=C\\CCCCCCCC(=O)c1nc2ncccc2o1"
  quantity-kind: "fold change"
  quantitative-readout: 0.938
- molecule: "O=C(Nc1c(Cl)cncc1Cl)c1ccc(OC(F)F)c(OCC2CC2)c1"
  quantity-kind: "fold change"
  quantitative-readout: 0.886
- molecule: "COc1ccc(F)c(F)c1C(=O)c1cnc(NC2CCN(S(C)(=O)=O)CC2)nc1N"
  quantity-kind: "fold change"
  quantitative-readout: 0.981
- molecule: "CS(=O)(=O)NC(=O)CCCCCCCCCC=C(Br)Br"
  quantity-kind: "fold change"
  quantitative-readout: 0.853
- molecule: "CCCCCCCCCCCCCCNC(=O)C1CCCCC1"
  quantity-kind: "fold change"
  quantitative-readout: 0.905
- molecule: "Cc1nc(C(=O)NCC(=O)O)c(O)c2ccc(Oc3ccccc3)cc12"
  quantity-kind: "fold change"
  quantitative-readout: 0.947
- molecule: "O=C(O)/C=C/CCCCCCCCC(=O)O"
  quantity-kind: "fold change"
  quantitative-readout: 0.99
- molecule: "CC1CCC(C(=O)N(c2cc(C#CC(C)(C)C)sc2C(=O)O)C2CCC(O)CC2)CC1 (stereo not drawn)"
  quantity-kind: "fold change"
  quantitative-readout: 0.937
- molecule: "Cc1cc(C)c(S(=O)(=O)Nc2cccc(C(F)(F)F)c2)c(C)c1"
  quantity-kind: "fold change"
  quantitative-readout: 0.995
- molecule: "CCCCCCCCCCCCCCCC(=O)N[C@H]1CCOC1=O"
  quantity-kind: "fold change"
  quantitative-readout: 0.999
